Below, each entry is listed with its recorded Phage binding ELISA, Anti-PSMA Fab signal in the presence of PSMA.
- SYSTEM UNDER TEST: T1, Anti-PSMA Fab (SEQ ID NOs: 19, 20) (biotinylated (site not stated))
- T1 construct: also called 006 PSMA Fab
- ASSAY INFO: phage ELISA; biotinylated PSMA Fab on neutravidin plate, wells pre-incubated with PSMA antigen as competitor, anti-M13 HRP detection
Where no end group is shown, it is not given here.
MEASURED ATTRIBUTE: Phage binding ELISA, Anti-PSMA Fab signal in the presence of PSMA

BINDER	MEASURED VALUE
VVQWCIPAWMCAAQ (cysteine pairing not given here; also: displayed as fusion to phage pIII, Clonal phage of the Peptide-180 library, tested as crude supernatant; not shown: fused to the pIII filament protein of the bacteriophage) [Phage-1933]	0.0955
TEKLCIPEWMCFGM (Clonal phage of the Peptide-180 library, tested as crude supernatant; not shown: fused to the pIII filament protein of the bacteriophage) [Phage-1924]	0.0644
VSIWCRPAWMCESG (Clonal phage of the Peptide-180 library, tested as crude supernatant; not shown: fused to the pIII filament protein of the bacteriophage) [Phage-1934]	0.0809
